Measured ADCC EC50 of individual entries
molecular target: EGFR on A431 epidermoid carcinoma cells (human, UniProt P00533 25-1210); test: cell-based or functional assay
Just the number in Molar, nothing appended.

The binder identified as H1H144P (antibody, human IgG1, V domains shown, Human IgG1 Fc (H1H)) VH: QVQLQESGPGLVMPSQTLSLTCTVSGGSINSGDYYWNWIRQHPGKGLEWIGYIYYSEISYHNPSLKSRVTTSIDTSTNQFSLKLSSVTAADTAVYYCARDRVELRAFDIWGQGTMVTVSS VL: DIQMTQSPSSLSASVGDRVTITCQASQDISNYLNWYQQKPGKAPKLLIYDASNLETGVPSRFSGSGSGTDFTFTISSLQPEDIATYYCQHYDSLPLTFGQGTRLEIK registered its ADCC EC50 at 4.57e-11

Value of ADCC EC50 reported for the binder H1H169P (antibody, human IgG1, V domains shown, Human IgG1 Fc (H1H)) VH: EVQLVESGGGLVQPGGSLRLSCAASRFTFSTYWMSWVRQAPGKGLEWVAKIKQDGSEKYYLDSVKDRFTISRDNAKNSLYLQMNSLRAEDTAVYYCASSITWYDYYYGMDVWGHGTTVTVSS VL: EIVLTQSPDFQSVTPKEKVTITCRASQSIGSNLHWYQQKPDQSPNLLIKFASQSFSGVPSRFSGSGSGTDFTLTINSLEAEDAATYYCHQTNFLPHTFGGGTKVEIK is 4.81e-09

For this binder ( H1H157P (antibody, human IgG1, V domains shown, Human IgG1 Fc (H1H)) VH: QVQLVESGGGVVQPGRSLRLTCKASGFTFSIYGINWVRQASGKGLDWVAVISDDGSDKKYADSVKGRFTISRDNSKNTVYLEMSRLRSEDTAVYFCAKDRFTGNHYYGMDVWGQGTTVTVSS VL: DIQMTQSPSSLSASVGDRVSITCRASQDISDYLAWFQQKPGKAPKSLIYAASILQNGVPSRFSGSGSGTDFTLTISSLQPEDFALYYCHQYNRFPWTFGQGTKVEIK ), measured ADCC EC50 is 2.27e-13

# binder H1H161P (antibody, human IgG1, V domains shown, Human IgG1 Fc (H1H)) VH: QVQLVESGGGVVQPGRSLRLSCAASGFTFSNYGMYWVRQAPGKGLEWVTFISYDGSNKNYVDSMKGRFTISRDNSKNTLYLQMNSLRVEDTAVYYCAKDRISGTPWYGMDVWGQGTTVTVSS VL: DIQMTQSPSSLSASVGDRVTITCRASQDIADYLAWFQQKPGKAPKSLIFAASSLESWVPLKFSGSGSGTDFTLTISSLQPEDFATYYCQQYSRFPITFGQGTKVEIK ; its ADCC EC50 = 9.8e-12

Please fill in: ADCC EC50 reported for H1H086N (antibody, human IgG1, V domains shown, Tested in human IgG1 Fc format (H1H); also called H1M086N) VH: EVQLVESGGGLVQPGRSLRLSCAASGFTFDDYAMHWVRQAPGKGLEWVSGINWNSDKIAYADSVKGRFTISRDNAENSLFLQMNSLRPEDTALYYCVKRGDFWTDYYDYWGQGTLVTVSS VL: DIVMTQSPLSLPVTPGEPASISCRSSQSLLHSNGYNYLDWYLQKPGQSPHLLIYLVSTRASGVPDRFSGSGSGTDFTLKISRVEAEDVGVYYCMQALQTPWTFGQGTKVEIK = 2.91e-13
